ASSAY: in vivo
CONDITIONS_USED: Sprague-Dawley, rat, kidney, inhaled, 2 mg/kg
MEASURED_QUANTITY: concentration at 168 h

1. CC[C@H](C)C[C@H](C)CCCCCCCCC(=O)N[C@H]1C[C@@H](O)[C@@H](NCCN)NC(=O)[C@@H]2[C@@H](O)CCN2C(=O)[C@H]([C@H](O)CCN)NC(=O)[C@H]([C@H](O)[C@@H](O)c2ccc(O)cc2)NC(=O)[C@@H]2C[C@@H](O)CN2C(=O)[C@H]([C@@H](C)O)NC1=O    20 ng/g

* * *

ASSAY: in vivo
CONDITIONS_USED: Sprague-Dawley, rat, liver, inhaled, 2 mg/kg
MEASURED_QUANTITY: concentration at 24 h (ng/g)

1) CC[C@H](C)C[C@H](C)CCCCCCCCC(=O)N[C@H]1C[C@@H](O)[C@@H](NCCN)NC(=O)[C@@H]2[C@@H](O)CCN2C(=O)[C@H]([C@H](O)CCN)NC(=O)[C@H]([C@H](O)[C@@H](O)c2ccc(O)cc2)NC(=O)[C@@H]2C[C@@H](O)CN2C(=O)[C@H]([C@@H](C)O)NC1=O    300

Each recorded value in this set is attributed to patent US9675659B2.
